Reference for the values: paper PMC4036204

system_tested: T1, Metnase transposase domain WT (UniProt Q53H47 342-684)
T1 sequence: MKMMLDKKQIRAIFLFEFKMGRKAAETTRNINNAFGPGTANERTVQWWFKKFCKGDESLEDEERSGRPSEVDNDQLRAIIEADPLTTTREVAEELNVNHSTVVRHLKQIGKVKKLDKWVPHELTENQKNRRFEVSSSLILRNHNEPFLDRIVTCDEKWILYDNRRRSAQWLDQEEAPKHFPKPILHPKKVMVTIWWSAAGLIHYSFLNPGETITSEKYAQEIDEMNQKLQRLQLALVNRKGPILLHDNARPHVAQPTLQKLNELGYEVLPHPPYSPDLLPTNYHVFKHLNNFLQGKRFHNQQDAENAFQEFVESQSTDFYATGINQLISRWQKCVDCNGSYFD
protocol_details: fluorescence polarization; FP: 50 mM HEPES pH 7.0, 150 mM NaCl, 10 nM probe, temperature not stated; EMSA: 50 mM HEPES-KOH pH 7.8, 50 mM NaCl, 0.2 ug poly(dI:dC), 0.2 ug/ul BSA, room temperature 15 min
conditions: protein: recombinant; tags: His6-SUMO cleaved by Ulp1; chain copies: 2; label: 5' rhodamine on strand 1; blunt
measurement_type: Kd (nM)
Expressed in nM, but write only the number.

Please give the measured Kd for this binder: 28-bp blunt TIR dsDNA (dsDNA, 5' C6-amino linker on strand 1) DNA 1: AACCGCAATTACTTTTGCACCAACCTAA DNA 2: TTAGGTTGGTGCAAAAGTAATTGCGGTT
7.9
